- TEST DETAILS: Half-life period at a substrate concentration of 304 uM was determined
- Format: ADME
Hi there, I'd appreciate the recorded half-life at 304 µM for every entry that follows.

Reported half-life at 304 µM ( N[C@@H](Cc1ccccc1)C(=O)N=[S+]([O-])(CC(=O)N[C@@H](Cc1ccccc1)C(=O)O)c1ccccc1 (some centres not stated) ) = 11.1 min

Reported half-life at 304 µM ( N[C@H](Cc1ccccc1)C(=O)N=[S+]([O-])(CC(=O)N[C@H](Cc1ccccc1)C(=O)O)c1ccccc1 (some centres not stated) ) = 15.3 min

----------
- TEST DETAILS: Relativity constant at a substrate concentration of 304 uM
- Format: ADME
PROPERTY: Krel
Number only, no unit.

Reported Krel ( N[C@H](Cc1ccccc1)C(=O)N=[S+]([O-])(CC(=O)N[C@H](Cc1ccccc1)C(=O)O)c1ccccc1 (stereo partly specified) ) = 0.73
